test: method code SF, from DOI: 10.1021/jm00307a001, PMID: 5637185
measured_quantity: logP

> print(dat)
                               compound  reported
1  C=CC(CC)OC(N)=O (stereo unspecified)      1.09

* * *

test: method code pH-metric titration, from DOI: 10.1002/(sici)1096-9063(199607)47:3<265::aid-ps416>3.0.co;2-f
details: pH 2.7
measured_quantity: logD

> print(dat)
                                   compound  measured.quantity  reported
1  CC(C)C1(C)N=C(c2ncccc2C(=O)O)NC1=O (stereo unspecified)               logD      0.22
